Below, each entry is listed with its recorded IC50.
molecular target: hBChE (Homo sapiens); assay: biochemical; type: biochemical; conditions: enzyme activity measured after 20 min incubation; read-out: IC50 hBChE
Respond with a number, then the unit of measure.

Problem: Observed IC50 on hBChE (Homo sapiens) for CN1c2ccc(OC(=O)NCCCCN3CCc4ccccc4C3)cc2CN2CCc3ccccc3C21 (stereo not drawn) [Compound 19i] , please.
Result: 192 nM

Problem: Observed IC50 on hBChE (Homo sapiens) for CN1c2ccc(OC(=O)NCCCN3CCOCC3)cc2CN2CCc3ccccc3C21 (stereo not drawn) [Compound 19b] , please.
Result: 938 nM

New cases:
Problem: Observed IC50 on hBChE (Homo sapiens) for CN1c2ccc(OC(=O)NCCCCCCCCN3CCOCC3)cc2CN2CCc3ccccc3C21 (stereo not drawn) [Compound 19e] , please.
Result: 19.8 nM

Problem: Observed IC50 on hBChE (Homo sapiens) for CN1c2ccc(OC(=O)NCCCCCCN3CCN(C(=O)OC(C)(C)C)CC3)cc2CN2CCc3ccccc3C21 (stereo not drawn) [Compound 19q] , please.
Result: 123 nM

Problem: Observed IC50 on hBChE (Homo sapiens) for CN1c2ccc(OC(=O)NCCCCCCN3CCCC3)cc2CN2CCc3ccccc3C21 (stereo not drawn) [Compound 19o] , please.
Result: 34.3 nM

Problem: Observed IC50 on hBChE (Homo sapiens) for CN1c2ccc(OC(=O)NCCCCCCCCN3CCc4ccccc4C3)cc2CN2CCc3ccccc3C21 (stereo not drawn) [Compound 19k] , please.
Result: 32.6 nM

----------
molecular target: hAChE (Homo sapiens); experiment: Ellman's colorimetric assay, inhibition of hAChE; assay type: biochemical; details: 10 µM
Sequence (P22303 32-614): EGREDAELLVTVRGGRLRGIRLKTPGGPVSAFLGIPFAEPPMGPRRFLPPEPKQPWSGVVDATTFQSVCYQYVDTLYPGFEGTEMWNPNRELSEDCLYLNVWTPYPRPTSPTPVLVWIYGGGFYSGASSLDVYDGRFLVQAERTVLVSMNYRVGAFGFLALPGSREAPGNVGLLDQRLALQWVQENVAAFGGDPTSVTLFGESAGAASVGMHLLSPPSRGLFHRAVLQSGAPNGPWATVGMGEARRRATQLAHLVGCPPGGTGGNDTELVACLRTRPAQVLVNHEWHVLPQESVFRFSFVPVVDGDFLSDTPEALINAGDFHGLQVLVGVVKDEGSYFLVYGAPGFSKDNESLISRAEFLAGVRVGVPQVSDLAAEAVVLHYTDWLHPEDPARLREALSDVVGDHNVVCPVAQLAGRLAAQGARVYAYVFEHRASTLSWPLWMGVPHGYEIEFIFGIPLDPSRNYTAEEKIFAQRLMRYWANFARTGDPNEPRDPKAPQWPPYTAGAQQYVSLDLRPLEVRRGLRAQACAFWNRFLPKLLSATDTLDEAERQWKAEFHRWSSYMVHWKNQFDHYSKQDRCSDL
Quick rule: inhibition at 10 µM of at least 10% means 1 (yes), below that means 0 (no).

Problem: I'd appreciate it if you could say whether CN1c2ccc(OC(=O)NCCCN3CCc4ccccc4C3)cc2CN2CCc3ccccc3C21 (stereo not drawn) [Compound 19h] has inhibition at 10 µM at least equal to 10%.
Result: 1 (yes)

Problem: I'd appreciate it if you could say whether CN1c2ccc(OC(=O)NCCCCN3CCc4ccccc4C3)cc2CN2CCc3ccccc3C21 (stereo not drawn) [Compound 19i] has inhibition at 10 µM at least equal to 10%.
Result: 1 (yes)

----------
biological target: hBChE (Homo sapiens, UniProt P06276); experiment: biochemical; type: biochemical
Sequence (P06276 29-602): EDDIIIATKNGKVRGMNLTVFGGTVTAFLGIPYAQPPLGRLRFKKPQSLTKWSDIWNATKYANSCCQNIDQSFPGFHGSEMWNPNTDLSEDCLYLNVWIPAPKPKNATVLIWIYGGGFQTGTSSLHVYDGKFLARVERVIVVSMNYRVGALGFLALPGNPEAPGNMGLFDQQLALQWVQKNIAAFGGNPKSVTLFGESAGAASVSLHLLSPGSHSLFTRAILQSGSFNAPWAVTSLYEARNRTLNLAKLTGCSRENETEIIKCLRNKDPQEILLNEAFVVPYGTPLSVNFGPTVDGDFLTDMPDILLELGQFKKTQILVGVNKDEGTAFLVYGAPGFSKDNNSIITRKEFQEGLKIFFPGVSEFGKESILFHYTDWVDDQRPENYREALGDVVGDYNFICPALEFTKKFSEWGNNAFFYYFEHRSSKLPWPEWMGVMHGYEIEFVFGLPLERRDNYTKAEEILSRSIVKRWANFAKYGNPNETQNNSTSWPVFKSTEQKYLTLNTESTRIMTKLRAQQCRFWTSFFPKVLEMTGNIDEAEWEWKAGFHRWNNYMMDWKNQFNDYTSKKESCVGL
recorded metric: IC50
Respond with a number, then the unit of measure.

Study these solved cases before continuing.
Problem: Request the reported IC50 associated with CN1c2ccc(OC(=O)NCCCCCCN3CCCC3)cc2CN2CCc3ccccc3C21 (stereo not drawn) [Compound 19o]
Result: 339 nM

Problem: Request the reported IC50 associated with CN1c2ccc(OC(=O)NCCCCCCCCN3CCOCC3)cc2CN2CCc3ccccc3C21 (stereo not drawn) [Compound 19e]
Result: 85.1 nM

New cases:
Problem: Request the reported IC50 associated with CN1c2ccc(OC(=O)NCCCCCCN3CCN(C(=O)OC(C)(C)C)CC3)cc2CN2CCc3ccccc3C21 (stereo not drawn) [Compound 19q]
Result: 794 nM

----------
target: hBChE (Homo sapiens, UniProt P06276); assay: biochemical; type: biochemical; conditions: enzyme activity measured after 20 min incubation
Below, each entry is listed with its recorded plC50 ± SEM (hBChE).
API note: the answer field is a bare number with no unit suffix.

Problem: Request the reported plC50 ± SEM (hBChE) associated with CN1c2ccc(OC(=O)NCCCCCCN3CCNCC3)cc2CN2CCc3ccccc3C21 (stereo not drawn) [Compound 19r]
Result: 7.09

Problem: Request the reported plC50 ± SEM (hBChE) associated with CN1c2ccc(OC(=O)NCCCCCCCCCCN3CCOCC3)cc2CN2CCc3ccccc3C21 (stereo not drawn) [Compound 19f]
Result: 7.94

Problem: Request the reported plC50 ± SEM (hBChE) associated with CN1c2ccc(OC(=O)NCCCCCCCCCCN3CCc4ccccc4C3)cc2CN2CCc3ccccc3C21 (stereo not drawn) [Compound 19l]
Result: 7.38

Problem: Request the reported plC50 ± SEM (hBChE) associated with CN1c2ccc(OC(=O)NCCCCCCn3cnc4ccccc43)cc2CN2CCc3ccccc3C21 (stereo not drawn) [Compound 19m]
Result: 8.13

Problem: Request the reported plC50 ± SEM (hBChE) associated with CN1c2ccc(OC(=O)NCCCCN3CCc4ccccc4C3)cc2CN2CCc3ccccc3C21 (stereo not drawn) [Compound 19i]
Result: 6.72

Problem: Request the reported plC50 ± SEM (hBChE) associated with CN1c2ccc(OC(=O)NCCCCCCn3ccnc3)cc2CN2CCc3ccccc3C21 (stereo not drawn) [Compound 19n]
Result: 7.88

Problem: Request the reported plC50 ± SEM (hBChE) associated with CN1c2ccc(OC(=O)NCCCCN3CCOCC3)cc2CN2CCc3ccccc3C21 (stereo not drawn) [Compound 19c]
Result: 7.30

Problem: Request the reported plC50 ± SEM (hBChE) associated with CN1c2ccc(OC(=O)NCCCCCCN3CCOCC3)cc2CN2CCc3ccccc3C21 (stereo not drawn) [Compound 19d]
Result: 7.31

New cases:
Problem: Request the reported plC50 ± SEM (hBChE) associated with CN1c2ccc(OC(=O)NCCCCCCN3CCc4ccccc4C3)cc2CN2CCc3ccccc3C21 (stereo not drawn) [Compound 19j]
Result: 7.57

Problem: Request the reported plC50 ± SEM (hBChE) associated with CN1c2ccc(OC(=O)NCCN3CCOCC3)cc2CN2CCc3ccccc3C21 (stereo not drawn) [Compound 19a]
Result: 5.11

Problem: Request the reported plC50 ± SEM (hBChE) associated with CN1c2ccc(OC(=O)NCCCN3CCOCC3)cc2CN2CCc3ccccc3C21 (stereo not drawn) [Compound 19b]
Result: 6.03

Problem: Request the reported plC50 ± SEM (hBChE) associated with CN1c2ccc(OC(=O)NCCCCCCN3CCCCC3)cc2CN2CCc3ccccc3C21 (stereo not drawn) [Compound 19p]
Result: 7.08

Problem: Request the reported plC50 ± SEM (hBChE) associated with CN1c2ccc(OC(=O)NCCCCCCCCN3CCc4ccccc4C3)cc2CN2CCc3ccccc3C21 (stereo not drawn) [Compound 19k]
Result: 7.49

Problem: Request the reported plC50 ± SEM (hBChE) associated with CN1c2ccc(OC(=O)NCCN3CCc4ccccc4C3)cc2CN2CCc3ccccc3C21 (stereo not drawn) [Compound 19g]
Result: 5.76

Problem: Request the reported plC50 ± SEM (hBChE) associated with CN1c2ccc(OC(=O)NCCCN3CCc4ccccc4C3)cc2CN2CCc3ccccc3C21 (stereo not drawn) [Compound 19h]
Result: 5.94
